Give measured IC50 for each item. Keep answers brief.
Target: Glycogen synthase kinase-3 beta (Homo sapiens, UniProt P49841)
Sequence (P49841 whole entry): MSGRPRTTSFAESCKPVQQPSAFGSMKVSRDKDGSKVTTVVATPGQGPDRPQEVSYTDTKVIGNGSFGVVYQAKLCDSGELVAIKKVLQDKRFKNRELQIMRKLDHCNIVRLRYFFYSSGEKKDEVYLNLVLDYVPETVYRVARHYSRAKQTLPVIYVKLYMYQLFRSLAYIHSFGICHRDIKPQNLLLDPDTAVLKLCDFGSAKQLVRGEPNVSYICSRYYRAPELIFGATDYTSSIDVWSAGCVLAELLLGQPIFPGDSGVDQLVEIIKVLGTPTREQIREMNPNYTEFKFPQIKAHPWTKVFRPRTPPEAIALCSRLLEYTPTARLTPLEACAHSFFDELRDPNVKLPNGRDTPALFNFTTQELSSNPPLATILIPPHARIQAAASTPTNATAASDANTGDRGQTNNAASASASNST
Test: biochemical
Assay type: cell-based, Sf9

Data request: Request body: readout IC50, system Glycogen synthase kinase-3 beta (Homo sapiens, UniProt P49841), query COc1ccc2nc3c(CO)cc(OC)cc3c(SC[C@H]3CCNC3)c2c1 . Return the value.
Data returned: > 10 µM

Data request: // next record CCOc1ccc2nc(N3CCCN(C(=S)Nc4ccccc4F)CC3)c(C#N)cc2c1
Data returned: > 10 µM

Data request: // next record CCNc1cc(Nc2ccc(C(=O)N3CCC(N4CCOCC4)CC3)cc2OC)nc2[nH]cc(C(F)(F)F)c12
Data returned: > 10 µM

Data request: // next record CC(C)(c1ccc(O)cc1)c1ccc(O)cc1
Data returned: > 10 µM

Data request: // next record COc1ccc2sc(-c3cncc(NC(C)=O)c3)nc2c1
Data returned: > 10 µM

Data request: // next record Cc1ccc(-n2cc(COc3cccc4cnc(Nc5cccc(Cl)c5)nc34)nn2)c([N+](=O)[O-])c1
Data returned: > 10 µM

----------
Give measured pIC50 for each item. Keep answers brief.
Target: Glycogen synthase kinase-3 beta (Homo sapiens, UniProt P49841)
Assay: biochemical
pIC50: −log10 of the molar value.

Data request: Dear colleague, I am looking for the recorded pIC50 of the following compound: CCN(CC)Cc1ccc(OC)c(-c2cc3c(-c4ccc(C(=O)O)c(C(C)C)c4)ccnc3[nH]2)c1
Data returned: 5.87

Data request: // next record Cn1cc(-c2ccc3occ(-c4cccc(-c5ccncc5)c4)c3n2)cn1
Data returned: 5.54

Data request: // next record COc1ccc2c3ccnc(Cl)c3n(CC#N)c2c1
Data returned: < 5.00

Data request: // next record Oc1ccc(-c2cnc3[nH]cc(-c4ccc(F)cc4)c3c2)cc1O
Data returned: < 5.00

Data request: // next record CN(C)c1nccc(-c2cnn3ncccc23)n1
Data returned: < 5.00

Data request: // next record CN1C(=O)/C(=C/c2ccc3c(c2)OCO3)N=C1N [LEUCETTAMINE B]
Data returned: < 5.00

Data request: // next record CN1Cc2nn(C)c(C#N)c2-c2cnc3[nH]cc(c3c2)-c2cn(nc2C(F)(F)F)CCCC1=O
Data returned: < 5.00

Data request: // next record COc1ccc2nc3ccc(OC)cc3c(SCCCN)c2c1
Data returned: < 5.00

Data request: // next record COc1ccc(/C=C2\SC(=S)NC2=O)cc1C#C[Si](C)(C)C
Data returned: < 5.00

Data request: // next record CCN1/C(=C/C(C)=O)Sc2ccc(O)cc21
Data returned: 5.36

Data request: // next record Cc1nc2ccc(-c3cc(N)nc(N)c3)nc2n1C(C)C
Data returned: < 5.00

Data request: // next record O=c1c2c(O)cc(O)cc2oc2c(O)ccc(O)c12 [DEMETHYLBELLIDIFOLIN]
Data returned: < 5.00

----------
Target: Dual specificity protein kinase CLK1 (Homo sapiens, UniProt P49759)
Sequence (P49759 whole entry): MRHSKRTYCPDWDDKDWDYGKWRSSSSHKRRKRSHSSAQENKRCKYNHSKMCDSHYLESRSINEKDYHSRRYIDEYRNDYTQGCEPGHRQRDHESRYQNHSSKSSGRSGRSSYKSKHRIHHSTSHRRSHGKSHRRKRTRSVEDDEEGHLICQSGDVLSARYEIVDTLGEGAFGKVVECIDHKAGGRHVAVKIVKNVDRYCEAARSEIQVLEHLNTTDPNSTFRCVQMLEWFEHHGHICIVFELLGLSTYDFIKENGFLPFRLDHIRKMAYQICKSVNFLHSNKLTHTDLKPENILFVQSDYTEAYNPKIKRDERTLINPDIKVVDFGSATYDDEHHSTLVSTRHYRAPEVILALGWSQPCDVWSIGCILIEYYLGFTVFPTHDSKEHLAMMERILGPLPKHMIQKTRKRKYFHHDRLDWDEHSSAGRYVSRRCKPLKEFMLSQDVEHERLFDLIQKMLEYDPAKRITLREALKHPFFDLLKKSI
Assay: biochemical
Assay type: cell-based, Sf9
Conditions: read-out: IC50
observedProperty: pIC50
The read-out pIC50 is expressed as -log10 of concentration in moles per litre.

Data request: Dear colleague, I am looking for the recorded pIC50 of the following molecule: COC(=N)c1nc2ccc3ncnc(Nc4ccc(OC)cc4F)c3c2s1
Data returned: 6.95

Data request: // next record Cn1cc(-c2ccc3cnc(NC(=O)C4CCN(S(C)(=O)=O)CC4)cc3c2)cn1
Data returned: 7.69

Data request: // next record O=C(Nc1ccc2[nH]ncc2c1)c1csc(Nc2ccccc2)n1
Data returned: 6.30

Data request: // next record CN1CCN(C(=O)C(C)(C)c2ccc(C(=O)Cc3cn4cc(-c5ccncc5)ccc4n3)cc2)CC1
Data returned: 6.92

Data request: // next record c1ccc(CNc2nc(Nc3cc(C4CC4)[nH]n3)c3sccc3n2)cc1
Data returned: 7.25

Data request: // next record CN1CCN(c2cc(C(=O)Nc3cc4cc(-c5cnn(C)c5)ccc4cn3)ccn2)CC1
Data returned: 8.04

Data request: // next record COc1cc(N2CCN(C)CC2)ccc1Nc1nccc(-c2cn(C)c3cnccc23)n1
Data returned: 6.76

Data request: // next record COc1cc(/C=C/C(=O)CC(=O)/C=C/c2ccc(O)c(OC)c2)ccc1O [CURCUMIN]
Data returned: 5.31

Data request: // next record Oc1ccc(-c2n[nH]c3ncc(-c4ccc(O)c(O)c4)cc23)cc1
Data returned: 7.42

Data request: // next record O=C(O)c1nc2ccccc2c2[nH]c3c(I)cccc3c12
Data returned: 7.84

----------
Target: Dual specificity protein kinase CLK2 (Homo sapiens, UniProt P49760)
Sequence (P49760 whole entry): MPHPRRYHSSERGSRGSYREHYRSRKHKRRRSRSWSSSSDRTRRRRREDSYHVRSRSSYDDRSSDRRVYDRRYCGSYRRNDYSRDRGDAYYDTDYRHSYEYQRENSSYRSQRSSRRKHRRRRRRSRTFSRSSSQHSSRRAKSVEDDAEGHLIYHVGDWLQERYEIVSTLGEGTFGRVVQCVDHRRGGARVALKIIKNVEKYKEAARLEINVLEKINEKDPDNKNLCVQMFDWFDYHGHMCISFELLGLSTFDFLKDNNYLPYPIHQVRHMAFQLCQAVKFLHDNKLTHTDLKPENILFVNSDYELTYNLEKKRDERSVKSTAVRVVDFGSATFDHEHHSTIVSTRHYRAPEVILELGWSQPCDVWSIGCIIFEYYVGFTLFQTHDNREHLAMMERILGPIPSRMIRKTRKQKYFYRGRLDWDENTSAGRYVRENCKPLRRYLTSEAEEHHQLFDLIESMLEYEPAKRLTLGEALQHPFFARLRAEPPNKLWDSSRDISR
Give measured IC50 for each item. Keep answers brief.

Data request: Dear colleague, I am looking for the recorded IC50 of the following molecule: CC(=O)c1nccc2c1[nH]c1ccccc12
Data returned: > 10 µM

Data request: // next record COc1cc(CCc2c(O)ccc(O[C@@H]3O[C@H](CO)[C@@H](O)[C@H](O)[C@H]3O)c2C(C)=O)ccc1O [SCORZODIHYDROSTILBENE A]
Data returned: > 10 µM

Data request: // next record CC(C)(c1ccc(O)cc1)c1ccc(O)cc1
Data returned: > 10 µM

----------
Molecular target: Casein kinase I isoform epsilon (Homo sapiens, UniProt P49674)
Sequence (P49674 whole entry, canonical isoform): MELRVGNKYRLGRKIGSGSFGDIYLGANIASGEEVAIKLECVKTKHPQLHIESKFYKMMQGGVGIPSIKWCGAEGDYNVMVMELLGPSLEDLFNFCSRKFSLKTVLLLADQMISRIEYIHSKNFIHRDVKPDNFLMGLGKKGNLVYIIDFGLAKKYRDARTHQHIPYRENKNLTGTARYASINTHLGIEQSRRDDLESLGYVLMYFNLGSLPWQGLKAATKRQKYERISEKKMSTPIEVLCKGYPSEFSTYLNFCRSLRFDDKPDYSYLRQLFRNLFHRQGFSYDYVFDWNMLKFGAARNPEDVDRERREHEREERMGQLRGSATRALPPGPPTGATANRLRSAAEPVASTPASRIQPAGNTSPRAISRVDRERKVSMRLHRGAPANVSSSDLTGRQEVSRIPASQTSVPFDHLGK
Assay: biochemical
pIC50: −log10 of the molar value.
Give measured pIC50 for each item. Keep answers brief.

Data request: Request body: readout pIC50, system Casein kinase I isoform epsilon (Homo sapiens, UniProt P49674), query COc1ccc(/C=C2\SC(=S)NC2=O)cc1C#C[Si](C)(C)C . Return the value.
Data returned: < 5.00

Data request: // next record Cn1cc(-c2ccc3occ(-c4cccc(-c5ccncc5)c4)c3n2)cn1
Data returned: < 5.00

Data request: // next record O=C(O)c1nc2ccccc2c2[nH]c3c(I)cccc3c12
Data returned: < 5.00

Data request: // next record CN1Cc2nn(C)c(C#N)c2-c2cnc3[nH]c(F)c(c3c2)-c2cn(nc2C(F)(F)F)CCCC1=O
Data returned: < 5.00

Data request: // next record O=c1c2c(O)cc(O)cc2oc2c(O)ccc(O)c12
Data returned: < 5.00

Data request: // next record O=C1NC(=Nc2c(Cl)cccc2Cl)S/C1=C\c1ccc2nccnc2c1
Data returned: 5.75

Data request: // next record CCN1CCN(Cc2ccc(Nc3ncc(F)c(-c4cc(F)c5nc(C)n(C(C)C)c5c4)n3)nc2)CC1
Data returned: < 5.00

Data request: // next record CN1Cc2nn(C)c(C#N)c2-c2cnc3[nH]cc(c3c2)-c2cn(nc2C(F)(F)F)CCCC1=O
Data returned: < 5.00

Data request: // next record c1ccc(CNc2nc(Nc3cc(C4CC4)[nH]n3)c3sccc3n2)cc1
Data returned: 5.08

Data request: // next record O=C(Nc1ccc2[nH]ncc2c1)c1csc(Nc2ccccc2)n1
Data returned: < 5.00

Data request: // next record COc1ccc2nc3ccc(OC)cc3c(SCCCN)c2c1
Data returned: < 5.00

Data request: // next record CCOc1ccc2nc(N3CCCN(C(=S)Nc4ccccc4F)CC3)c(C#N)cc2c1
Data returned: < 5.00

Data request: // next record CCOC(=O)c1c(/C(C#N)=C\N)c2ccc(Cl)c(Cl)c2n1C
Data returned: < 5.00

Data request: // next record CN1CCN(c2cc(C(=O)Nc3cc4cc(-c5cnn(C)c5)ccc4cn3)ccn2)CC1
Data returned: 5.52

Data request: // next record Oc1ccc(-c2n[nH]c3ncc(-c4ccc(O)c(O)c4)cc23)cc1
Data returned: 7.41

Data request: // next record CN1CCN(C(=O)C(C)(C)c2ccc(C(=O)Cc3cn4cc(-c5ccncc5)ccc4n3)cc2)CC1
Data returned: < 5.00

Data request: // next record COc1cc(/C=C/C(=O)CC(=O)/C=C/c2ccc(O)c(OC)c2)ccc1O
Data returned: < 5.00

Data request: // next record Cn1cc(-c2ccc3cnc(NC(=O)C4CCN(S(C)(=O)=O)CC4)cc3c2)cn1
Data returned: < 5.00
